The reported numbers originate from patent US20170165259A1.

Target: IRE1α* (Homo sapiens, UniProt O75460)
Construct: human IRE1α (residues 469-977, IRE1α*); made in house; host or cells: SF9 insect cells, Bac-to-Bac baculovirus
Sequence (O75460 469-977): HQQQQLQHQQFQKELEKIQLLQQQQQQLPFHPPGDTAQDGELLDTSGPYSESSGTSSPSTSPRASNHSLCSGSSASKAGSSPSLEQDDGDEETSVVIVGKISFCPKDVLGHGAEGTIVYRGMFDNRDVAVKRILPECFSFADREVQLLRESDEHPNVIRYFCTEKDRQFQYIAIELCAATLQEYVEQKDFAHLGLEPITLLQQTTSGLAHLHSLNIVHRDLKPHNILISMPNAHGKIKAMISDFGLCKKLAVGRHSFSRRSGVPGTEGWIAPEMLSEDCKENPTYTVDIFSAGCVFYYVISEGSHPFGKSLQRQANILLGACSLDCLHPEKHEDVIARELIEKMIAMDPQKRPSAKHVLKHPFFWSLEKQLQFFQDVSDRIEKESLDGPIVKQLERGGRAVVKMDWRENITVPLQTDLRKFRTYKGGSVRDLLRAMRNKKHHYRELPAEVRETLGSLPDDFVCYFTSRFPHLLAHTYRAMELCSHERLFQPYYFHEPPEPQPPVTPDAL
Assay: IRE1α* autophosphorylation kinase assay in vitro
Format: biochemical
pIC50: −log10 of the molar value.
MEASURED_ENDPOINT: pIC50

{"COMPOUND": "c1cc(Nc2cc(C3CC3)[nH]n2)nc(Nc2ccc3nc[nH]c3c2)n1 [APY29]", "READING": 6.55}

====

Biological target: IRE1α* (Homo sapiens, UniProt O75460)
Construct: human IRE1α (residues 469-977, IRE1α*); made in house; host or cells: SF9 insect cells, Bac-to-Bac baculovirus
Test: IRE1α* kinase assay (96-well dot blot, 32γ-ATP, STK peptide substrate 2)
Assay type: biochemical
MEASURED_ENDPOINT: IC50 (µM)

{"COMPOUND": "CC(C)(C)c1nc(-c2ccc(NC(=O)Nc3cccc(F)c3)c3ccccc23)c2c(N)nccn12 [KIRA7]", "STUDY_SYSTEM": "IRE1α* (Homo sapiens, UniProt O75460)", "READING": 0.035}
